- tested_target: T1, mouse MAdCAM expressed on cells (mouse, UniProt Q61826 22-405)
- T1 construct: whole, on cells
- T1 sequence (looked up): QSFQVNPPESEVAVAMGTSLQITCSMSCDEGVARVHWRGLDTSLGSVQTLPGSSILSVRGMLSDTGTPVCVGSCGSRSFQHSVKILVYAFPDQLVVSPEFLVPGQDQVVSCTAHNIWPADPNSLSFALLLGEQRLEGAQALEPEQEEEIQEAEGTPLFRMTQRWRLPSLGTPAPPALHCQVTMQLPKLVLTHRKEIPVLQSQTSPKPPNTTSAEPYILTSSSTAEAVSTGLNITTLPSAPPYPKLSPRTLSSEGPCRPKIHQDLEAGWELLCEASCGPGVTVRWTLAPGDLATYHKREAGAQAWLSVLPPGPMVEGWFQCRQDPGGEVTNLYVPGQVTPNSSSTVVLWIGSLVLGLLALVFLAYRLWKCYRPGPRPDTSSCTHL
- assay_method_text: cell binding
measurement_type: binding result

Consider the following illustrative entries.
binder	binding result
MAdCAM Antibody Table 2 clone 64 (antibody, V domains shown, IgG format) VH: EVQLLESGGGLVQPGGSLRLSCAASGFTFSNSDMNWVRQAPGKGLEWVAHIWNDGSQKYYADSVKGRFTISRDNSKNTLYLQMNSLRAEDTAVYYCARDRTDPGYSSAMDVWGQGTTVTVSS VL: DIQMTQSPSSLSASVGDRVTITCRASQDIRNYLGWYQQKPGKAPKLLIYDASSLETGVPSRFSGSGSGTDFTLTISSLQPEDFATYYCQQATSLPLTFGGGTKVEIK	no binding
MAdCAM Antibody Table 2 clone 12 (antibody, V domains shown, IgG format) VH: QVQLVQSGAEVKKPGASVKVSCKASGYTLTTWYMYWVRQAPGQGLEWMGWINPNRGATNYAQKFQGRVTMTRDTSTSTVYMELSSLRSEDTAVYYCAKGDLWGAMDVWGQGTLVTVSS VL: DIQMTQSPSSLSASVGDRVTITCRASDNIGSWLAWYQQKPGKAPKLLIYAASSLQSGVPSRFSGSGSGTDFTLTISSLQPEDFATYYCQQGYSTPPTFGQGTKVEIK	no binding
MAdCAM Antibody Table 2 clone 38 (antibody, V domains shown, IgG format) VH: QVQLVQSGAEVKKPGASVKVSCKASGYTFTDYFLHWVRQAPGQGLEWMGWMNPTSGNTGYAQKFQGRVTMTRDTSTSTVYMELSSLRSEDTAVYYCAREGEGSGFDYWGQGTLVTVSS VL: DIQMTQSPSSLSASVGDRVTITCRASQGINSWLAWYQQKPGKAPKLLIYDASNLETGVPSRFSGSGSGTDFTLTISSLQPEDFATYYCQQSYSTPLTFGGGTKVEIK	no binding
MAdCAM Antibody Table 2 clone 80 (antibody, V domains shown, IgG format) VH: EVQLLESGGGLVQPGGSLRLSCAASGFTFDDYAMHWVRQAPGKGLEWVSAISGSGGSTYYADSVKGRFTISRDNSKNTLYLQMNSLRAEDTAVYYCAKDLGVVVPAALDYWGQGTTVTVSS VL: DIQMTQSPSSLSASVGDRVTITCQASQDISNHLNWYQQKPGKAPKLLIYDASNLEAGVPSRFSGSGSGTDFTLTISSLQPEDFATYYCQQSYSTPLTFGGGTKVEIK	no binding
MAdCAM Antibody Table 2 clone 83 (antibody, V domains shown, IgG format) VH: EVQLLESGGGLVQPGGSLRLSCAASGFTFSSYWMHWVRQAPGKGLEWVAAISYDGKYKDYEDSVKGRFTISRDNSKNTLYLQMNSLRAEDTAVYYCARENKQWLASFDYWGQGTLVTVSS VL: DIQMTQSPSSLSASVGDRVTITCQASQDISNFVNWYQQKPGKAPKLLIYAANLRSGVPSRFSGSGSGTDFTLTISSLQPEDFATYYCQQANSFPVTFGPGTKVDIK	binds
MAdCAM Antibody Table 2 clone 73 (antibody, V domains shown, IgG format) VH: QVQLVQSGAEVKKPGASVKVSCKASGYTFTSNYVHWVRQAPGQGLEWMGRINPHSGDTSYAQKFQGRVTMTRDTSTSTVYMELSSLRSEDTAVYYCARAGQLWSDWYFDLWGRGTLVTVSS VL: DIQMTQSPSSLSASVGDRVTITCQASQDIRNYLNWYQQKPGKAPKLLIYAATALRTGVPSRFSGSGSGTDFTLTISSLQPEDFATYYCQQSYSHPLTFGQGTKVEIK	no binding
MAdCAM Antibody Table 2 clone 23 (antibody, V domains shown, IgG format) VH: EVQLLESGGGLVQPGGSLRLSCAASGFTFDDYAMHWVRQAPGKGLEWVSYIDTSSSHLYYADSVKGRFTISRDNSKNTLYLQMNSLRAEDTAVYYCARDEAAAGYYGMDVWGQGTTVTVSS VL: DIQMTQSPSSLSASVGDRVTITCQAGQDISNYLNWYQQKPGKAPKLLIYDASNLETGVPSRFSGSGSGTDFTLTISSLQPEDFATYYCQQTYSTPITFGQGTKLEIK	no binding
MAdCAM Antibody Table 2 clone 59 (antibody, V domains shown, IgG format) VH: EVQLLESGGGLVQPGGSLRLSCAASGFSFSDYGMHWVRQAPGKGLEWVSAISGSGGSTYYADSVKGRFTISRDNSKNTLYLQMNSLRAEDTAVYYCARDGGWQPAAILDYWGQGTLVTVSS VL: DIQMTQSPSSLSASVGDRVTITCRASQGISNNLNWYQQKPGKAPKLLIYDASNLETGVPSRFSGSGSGTDFTLTISSLQPEDFATYYCQQSYSTPLTFGGGTKVEIK	no binding
MAdCAM Antibody Table 2 clone 7 (antibody, V domains shown, IgG format) VH: EVQLLESGGGLVQPGGSLRLSCAASGFTFSDYQMSWVRQAPGKGLEWVAIISHADGGFKDYADSVKGRFTISRDNSKNTLYLQMNSLRAEDTAVYYCAKPYSSGWSAVYYFDYWGQGTLVTVSS VL: DIQMTQSPSSLSASVGDRVTITCRASRGITNDLGWYQQKPGKAPKLLIYAASTLQSGVPSRFSGSGSGTDFTLTISSLQPEDFATYYCQQAYSFPWTFGQGTKVEIK	binds

QUERY: Please report the recorded binding result for MAdCAM Antibody Table 2 clone 63 (antibody, V domains shown, IgG format) VH: EVQLLESGGGLVQPGGSLRLSCAASGFTFNNYGMNWVRQAPGKGLEWVSRINSDGSSTSYADSVKGRFTISRDNSKNTLYLQMNSLRAEDTAVYYCARGAYYYYYMDVWGQGTLVTVSS VL: EIVMTQSPATLSVSPGERATLSCRASQSVSGSYLAWYQQKPGQAPRLLIYATSSRASGIPARFSGSGSGTEFTLTISSLQSEDFAVYYCQQYYSGLTFGQGTKVEIK .
RESULT: no binding
